- STUDY TARGET: Nonstructural protein 1 (Influenza A virus, UniProt Q194T2)
- Sequence (Q194T2 whole entry): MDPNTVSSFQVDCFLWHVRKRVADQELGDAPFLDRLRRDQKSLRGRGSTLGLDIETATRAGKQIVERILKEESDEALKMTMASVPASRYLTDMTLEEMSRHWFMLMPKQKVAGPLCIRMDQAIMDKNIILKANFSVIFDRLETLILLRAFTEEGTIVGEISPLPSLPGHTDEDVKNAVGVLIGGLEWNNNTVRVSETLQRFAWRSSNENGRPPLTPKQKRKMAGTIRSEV
- Assay type: functional, Influenza A virus (A/California/07/2009(H1N1))
Active and inactive are the calls of the source.
MEASURED PROPERTY: IC50

>>> endpoint_result("Oc1nncc(N/N=C/c2ccccn2)n1")
"1.44 µM (active)"
>>> endpoint_result("CCN(CC)CCC(c1ccc(N(C)C)cc1)c1c(OC)cc(OC)c2c(-c3ccccc3)cc(=O)oc12 (stereo unspecified)")
"13.6 µM (active)"
>>> endpoint_result("Oc1ccc(/C=N/NC(=S)NCCN2CCOCC2)c(O)c1")
"6.59 µM (active)"
>>> endpoint_result("Oc1c(C(Nc2cccc(C(F)(F)F)c2)c2ccncc2)ccc2cccnc12 (stereo unspecified)")
"8.76 µM (active)"
>>> endpoint_result("CC1C/C(=N/Nc2ccc([N+](=O)[O-])cc2[N+](=O)[O-])CC(C)(C)C1 (stereo unspecified)")
"46 µM (active)"
>>> endpoint_result("CCOc1ccc(N2C(=O)/C(=C\\NNc3nnc(C)c(O)n3)c3ccccc3C2=O)cc1")
"5.02 µM (active)"
>>> endpoint_result("Cc1[nH]c2ccccc2c1C(c1ccccn1)c1c(C)[nH]c2ccccc12")
"> 100 µM (active)"
>>> endpoint_result("O=C(NC(=S)NNC(=O)c1cnccn1)c1ccc(Cl)cc1")
"3.01 µM (active)"
>>> endpoint_result("CC1(C)CCCN(C(=O)c2ccc3c(c2NCCO)C(=O)c2ccccc2C3=O)C1")
"15.2 µM (active)"
>>> endpoint_result("O=C1CC(Nc2ccc(N3CCOCC3)cc2)C(=O)N1c1cccc(C(F)(F)F)c1 (stereo unspecified)")
"> 100 µM (active)"
>>> endpoint_result("Oc1ccc2ccccc2c1N=Nc1ccccc1F")
"20.4 µM (active)"

###

Quick reference: AC50 of the listed items.
- MEASUREMENT NOTES: Luminescence Cell-Based Dose Retest to Confirm Inhibitors of Cancer Stem Cells. [Related pubchem assays (depositor defined):AID2717, AID2721]
- Assay type: functional
- TEST CONDITIONS: Homo sapiens
Active and inactive are the calls of the source.
MEASURED PROPERTY: AC50

>>> endpoint_result("CC(C)COc1ccc(-c2nn(-c3ccccc3)cc2/C=C2/SC(=S)N(CC(=O)O)C2=O)cc1")
"2.87 µM (active)"
>>> endpoint_result("COc1ccc(N/N=C(\\C=O)C(=O)c2cccs2)cc1")
"3.43 µM (active)"
>>> endpoint_result("CCC1=NN2C(=N)/C(=C/c3c(C)nn(-c4ccccc4)c3Cl)C(=O)N=C2S1")
"78.8 µM (active)"
>>> endpoint_result("C/C(=N/Cc1cccc(Cl)c1)c1nc(-c2ccco2)oc1O")
"1.08 µM (active)"
>>> endpoint_result("CC[C@H](C)[C@H]1O[C@]2(CC[C@@H]1C)C[C@@H]1C[C@@H](CC=C(C)[C@@H](O[C@H]3C[C@H](OC)[C@@H](O[C@H]4C[C@H](OC)[C@@H](O)[C@H](C)O4)[C@H](C)O3)[C@@H](C)C=CC=C3CO[C@@H]4[C@H](O)C(C)=C[C@@H](C(=O)O1)[C@]34O)O2")
"1.22 µM (active)"
>>> endpoint_result("COc1cc(OC)cc(-c2c(-c3cccs3)c3cc(-c4ccc(N(C)C)nc4)ccc3n2C)c1")
"28.5 µM (active)"
>>> endpoint_result("CC/C(NNc1ccccc1)=C1/C(=O)NC(=O)N(c2ccc(OC)cc2)C1=O")
"0.769 µM (active)"
>>> endpoint_result("COc1cc(CNCCc2c[nH]c3ccccc23)ccc1OCc1ccc(F)cc1")
"5 µM (active)"
